Molecular target: T1, Cyk3, Q07533
T1 sequence (Q07533 1-83, looked up): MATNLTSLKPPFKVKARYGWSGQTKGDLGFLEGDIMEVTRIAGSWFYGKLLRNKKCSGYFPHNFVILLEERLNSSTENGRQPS
Assay: SPOT array
Settings: median of control spots 1451
experimental readout: SPOT intensity

VQPTAAPATPPRHIS 0
RLPAPPPPPRRGPAP 0

1: IKKRNKIRLPSGSPE
2: IHTRRPSSTSQYLIR
**Q:** Lowest SPOT intensity? choose 1 or 2 Respond using the label that marks the chosen record.
**A:** 2
(2: 1, 1: 9)
